IC50 listing for selected compounds.
test: Cytotoxicity of didemnins (Table II); format: cell-based; conditions: cytotoxicity
Starred links: 1 amine or outer side, 2 acyl side, 3 side chain; linkers in the order of their positions; H or OH if unused. Positions of bridges follow the written chain, without caps; N, C: chain ends. Non-standard residues stand in square brackets, D forms with d. Residues, ends and D or L forms follow the SMILES beside them. *: point of attachment. X1 = CC[C@H](C)[C@@H](N[*:1])[C@@H](O)CC(=O)O[C@H](C(=O)[C@H](C)C(=O)[*:2])C(C)C; NMeY = CN[C@@H](Cc1ccc(O)cc1)C(=O)O; dNMeL = CN[C@H](CC(C)C)C(=O)O; pGlu = O=C1CC[C@@H](C(=O)O)N1; Pyruvoyl = CC(=O)C(=O)*; Lac = C[C@H](O)C(=O)O
Give just the number in µg/mL; leave the unit off.

Past entries and their recorded results:
# Compound, Readout label, Value
rows = [
    ("CC[C@H](C)[C@H]1NC(=O)[C@@H](NC(=O)[C@@H](CC(C)C)N(C)C(=O)[C@@H]2CCCN2C(=O)C(C)=O)[C@@H](C)OC(=O)[C@H](Cc2ccc(OC)cc2)N(C)C(=O)[C@@H]2CCCN2C(=O)[C@H](CC(C)C)NC(=O)[C@@H](C)C(=O)[C@H](C(C)C)OC(=O)C[C@@H]1O [Dehydrodidemnin B (6), Dehydrodidemnin B] (Pyruvoyl-P[dNMeL]T[X1]LP[NMeY](Me); ester 3-C)", "IC50", 0.0002),
    ("CC[C@H](C)[C@H]1NC(=O)[C@@H](NC(=O)[C@@H](CC(C)C)N(C)C(=O)[C@@H]2CCCN2C(=O)[C@H](C)OC(=O)[C@@H](N)CCC(N)=O)[C@@H](C)OC(=O)[C@H](Cc2ccc(OC)cc2)N(C)C(=O)[C@@H]2CCCN2C(=O)[C@H](CC(C)C)NC(=O)[C@@H](C)C(=O)[C@H](C(C)C)OC(=O)C[C@@H]1OC(=O)[C@@H](N)CCC(N)=O [Gln[GlnIst^2]-Didemnin B (160), Glutaminyl-glutaminyl-didemnin B]", "IC50", 0.05),
    ("CC[C@H](C)[C@H]1NC(=O)[C@@H](NC(=O)[C@@H](CC(C)C)NC)[C@@H](C)OC(=O)[C@H](Cc2ccc(OC)cc2)N(C)C(=O)[C@@H]2CCCN2C(=O)[C@H](CC(C)C)NC(=O)[C@@H](C)C(=O)[C@H](C(C)C)OC(=O)C[C@@H]1O [Didemnin A (1), Didemnin A] (H-[dNMeL]T[X1]LP[NMeY](Me); ester 2-C)", "IC50", 0.075),
    ("CC[C@H](C)[C@H]1NC(=O)[C@@H](NC(=O)[C@@H](CC(C)C)N(C)C(=O)[C@@H]2CCCN2C(=O)C(C)O)[C@@H](C)OC(=O)[C@H](Cc2ccc(OC)cc2)N(C)C(=O)[C@@H]2CCCN2C(=O)[C@H](CC(C)C)NC(=O)[C@@H](C)C(=O)[C@H](C(C)C)OC(=O)C[C@@H]1O (stereo partly shown) [Didemnin (B) (2), Didemnin B, reference compound]", "IC50", 0.007),
]

Memo: CC[C@H](C)[C@H]1NC(=O)[C@@H](NC(=O)[C@@H](CC(C)C)N(C)C(=O)[C@@H]2CCCN2)[C@@H](C)OC(=O)[C@H](Cc2ccc(OC)cc2)N(C)C(=O)[C@@H]2CCCN2C(=O)[C@H](CC(C)C)NC(=O)[C@@H](C)C(=O)[C@H](C(C)C)OC(=O)C[C@@H]1O [Prolyl-didemnin A (43), prolyl-didemnin A] (H-P[dNMeL]T[X1]LP[NMeY](Me); ester 3-C) , reported IC50: 0.012

Memo: CC[C@H](C)[C@H]1NC(=O)[C@@H](NC(=O)[C@@H](CC(C)C)N(C)C(=O)[C@@H]2CCCN2C(=O)[C@H](C)OC(=O)[C@H](CCC(N)=O)NC(=O)[C@@H]2CCC(=O)N2)[C@@H](C)OC(=O)[C@H](Cc2ccc(OC)cc2)N(C)C(=O)[C@@H]2CCCN2C(=O)[C@H](CC(C)C)NC(=O)[C@@H](C)C(=O)[C@H](C(C)C)OC(=O)C[C@@H]1O [Didemnin M (5), L-Pyroglutaminyl-L-glutaminyl-didemnin B] ([pGlu]Q[Lac]P[dNMeL]T[X1]LP[NMeY](Me); ester 6-C) , reported IC50: 0.0008

Memo: CC[C@H](C)[C@H]1NC(=O)[C@@H](NC(=O)[C@@H](CC(C)C)N(C)C(=O)[C@@H]2CCCN2C(=O)[C@H](C)OC(=O)[C@@H]2CCC(=O)N2C(=O)OCc2ccccc2)[C@@H](C)OC(=O)[C@H](Cc2ccc(OC)cc2)N(C)C(=O)[C@@H]2CCCN2C(=O)[C@H](CC(C)C)NC(=O)[C@@H](C)C(=O)[C@H](C(C)C)OC(=O)C[C@@H]1O , reported IC50: 0.05
